# credit: the FLAb antibody collection (doi:10.7554/elife.23156)

Below, each entry is listed alongside its reported Kd.
B1: scFv; the commonest letter at each place (parent)
chain 1: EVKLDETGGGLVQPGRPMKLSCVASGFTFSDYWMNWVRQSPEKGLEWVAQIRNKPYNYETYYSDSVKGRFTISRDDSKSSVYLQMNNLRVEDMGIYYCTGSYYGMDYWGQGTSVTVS
chain 2: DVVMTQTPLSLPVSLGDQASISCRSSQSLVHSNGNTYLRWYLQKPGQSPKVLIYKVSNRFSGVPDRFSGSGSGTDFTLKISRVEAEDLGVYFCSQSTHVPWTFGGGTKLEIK

Variants of: B1
Test: Kd (Tite-Seq)
Settings: with fluorescein; format: scFv 4-4-20, heavy + light

The cases that follow already have their Kd on record.
chain 1 G109W :: ≥ 10 µM
chain 1 W108T :: 0.000399 µM
chain 1 M34G N35P :: 5.37 µM

## Task Look up Kd: chain 1 N35P W36T
## Result ≥ 10 µM

## Task Try the variant chain 1 F29N W33P
## Result ≥ 10 µM
